// values below are reported TGI
System: K-562 leukemia
Experiment: NCI tumour cell line growth inhibition, 48 h
observationType: TGI

compound=CCOC(=O)c1cccc(N=Nc2ncc(/C=C/C(=O)OC)[nH]2)c1 observedvalue="> 100 µM"
compound="CC(NC(=O)c1ccc(OP(=O)(OCc2ccc([N+](=O)[O-])o2)N(C)CCCCCl)cc1)c1ccc(OCC2CCCCC2)c(C(N)=O)c1 (stereo not drawn)" observedvalue="18 µM"
compound=Cc1cccc(/C=N/N=C(\N)NO)n1 observedvalue="> 100 µM"
compound=C=C(C)[C@@H]1CC[C@]2(COC(=O)c3ccccc3C(=O)O)CC[C@]3(C)[C@H](CC[C@@H]4[C@@]5(C)CC[C@H](OC(=O)c6ccccc6C(=O)O)C(C)(C)[C@@H]5CC[C@]43C)[C@@H]12 observedvalue="> 100 µM"
compound="CC(C)=CC1(C)/C(=N\\O)C(C)(CC(C)C)C(=O)N1O (stereo not drawn)" observedvalue="> 100 µM"
compound=Nc1csc(-c2scc3c2OCCO3)c1N observedvalue="87.4 µM"
compound="CC(CCCCNC(=O)OC(C)(C)C)NC(=O)NC(C)CCCCNC(=O)OC(C)(C)C (stereo not drawn)" observedvalue="> 100 µM"
compound=NC(=S)NN=C1Cc2ccccc2C1 observedvalue="> 100 µM"
compound=O=C(Cn1c2c(c3ccccc31)CCCC2)N1CCOCC1 observedvalue="> 100 µM"
compound="Cc1nc2sc(C(=O)Nc3cccc(Cl)c3C)c(N)c2cc1C(O)c1ccccc1 (stereo not drawn)" observedvalue="> 48.6 µM"
compound=COc1ccc2c(ccc3oc([N+](=O)[O-])cc32)c1 observedvalue="6.14 µM"
compound=Nc1ccccc1-n1c2c(c3ccccc3c1=O)C(=O)c1ccccc1-2 observedvalue="> 100 µM"
compound=OCCCN=C1N=C(Cl)/C(=C\c2ccccc2)N1 observedvalue="> 100 µM"

Entry source: PubChem BioAssay (NCI)
